Settings: in 1,2-dichloroethane, 331.34 K

{"compound-smiles": "O=[N+]([O-])/N=C1\\NCCN1Cc1ccc(Cl)nc1", "solubility (mole fraction)": 0.0309}

###

Settings: in methanol, 320.59 K
assay-endpoint: solubility (mole fraction)

{"compound-smiles": "O=[N+]([O-])/N=C1\\NCCN1Cc1ccc(Cl)nc1", "assay-endpoint": "solubility (mole fraction)", "reported-value": 0.00361}

###

Details: in ethanol, 320.74 K
assay-endpoint: solubility (mole fraction)

{"compound-smiles": "O=[N+]([O-])/N=C1\\NCCN1Cc1ccc(Cl)nc1", "reported-value": 0.0017}

###

Conditions: in chloroform, 303.84 K

{"compound-smiles": "O=[N+]([O-])/N=C1\\NCCN1Cc1ccc(Cl)nc1", "solubility (mole fraction)": 0.0115}
